- Test system: HT-29
- Assay: Cytotoxicity against human HT-29 cells at 50 uM after 72 hrs by celltiter glo assay
- Format: functional
- Protocol conditions: HT-29, 72 h, read-out: GI
Endpoint: inhibition of growth at 50 µM (%)
Lab book: enter the figure in %, no units written.

Prompt: Looking for the measured inhibition of growth at 50 µM of "N#Cc1c(-c2ccccc2O)cc(-c2ccccc2Br)[nH]c1=O" , can you help?
Completion: 22

More entries:
Prompt: Looking for the measured inhibition of growth at 50 µM of "N#Cc1c(-c2ccsc2)cc(-c2ccccc2)[nH]c1=N" , can you help?
Completion: 25

Prompt: Likewise for "N#Cc1c(-c2ccccc2Cl)cc(-c2ccc(Br)cc2)[nH]c1=N" ?
Completion: -16

Prompt: Likewise for "COc1ccccc1-c1cc(-c2ccsc2)[nH]c(=O)c1C#N" ?
Completion: 20

Prompt: Likewise for "COc1ccc(-c2cc(-c3ccsc3)[nH]c(=O)c2C#N)cc1" ?
Completion: -20
